B1: C8orf76 (parent)
chain: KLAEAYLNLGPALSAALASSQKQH

variants of: B1; assay: protein stability index of a GFP-peptide fusion (GPS, HEK-293T) (PSI 1-6); higher = more stable; details: c terminus: a fixed tail appended;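 note: lentivirally expressed fusions sorted by FACS into six bins by GFP to DsRed ratio, PSI derived from sequencing read proportions per bin multiplied by bin number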
measured endpoint: protein stability index
Lab note: jot down the number only; don't add units.

mutant label: A15N
protein stability index: 1.81

mutant label: A5N
protein stability index: 2.07

mutant label: L13D
protein stability index: 3.15

mutant label: P11F
protein stability index: 2.45

-- ask Requested read-out: protein stability index. Entry: `Y6H`
-- reply 2.3

-- ask Requested read-out: protein stability index. Entry: `E4W`
-- reply 3.01

-- ask Requested read-out: protein stability index. Entry: `Q21N`
-- reply 3.31

-- ask Requested read-out: protein stability index. Entry: `A3Q`
-- reply 1.72

-- ask Requested read-out: protein stability index. Entry: `L7A`
-- reply 1.6

-- ask Requested read-out: protein stability index. Entry: `K22M`
-- reply 2.41
